Test system: F. prausnitzii
Experiment: Model organism test of sugar alcohols as energy substrate for F. prausnitzii
Type: cell-based, Faecalibacterium prausnitzii
Conditions: FIGS. 4A and 4B
quantity_name: effect as energy substrate for F. prausnitzii

OC[C@@H](O)[C@@H](O)CO [erythritol] :: confirmed
OC[C@@H](O)[C@@H](O)[C@H](O)[C@@H](O)CO [sorbitol] :: confirmed
OC[C@@H](O)[C@H](O)[C@@H](O)CO [xylitol, reference compound] :: not
O[C@H]1[C@H](O)[C@@H](O)[C@H](O)[C@@H](O)[C@H]1O [inositol] :: confirmed
